# Test system: HOP-62 NSCLC
# experiment-notes: NCI tumour cell line growth inhibition, 48 h; in the data active means GI50 below about 0.43 µM; inactive means the rest
A correct response names exactly one class from active, inactive

Would you please look over these solved cases?
* O=C(O)c1cc(=O)cc(C(=O)O)o1 | inactive
* N#CC(C#N)=C1CCOc2ccc(F)cc21 | inactive
* O=C1CC(c2ccccc2)Cc2nc3ccc(Br)cc3cc21 (stereo not given) | inactive

Asked: Outcome logged for `CC(=O)CC/C=C(\C)[C@H](O)[C@H](C)C(=O)O[C@H]1C[C@H](C)C=C2C=C[C@@]3(C)O[C@@H](O)CC(=O)[C@]3(C)[C@H]21` in this assay:
Given back: inactive

Asked: Outcome logged for COC1=C(C)C(=O)c2c(c(CCCl)c3n2CCC3OC(C)=O)C1=O (stereo not given) in this assay:
Given back: active
